- System: ACHN renal
- assayNotes: NCI tumour cell line growth inhibition, 48 h
endpoint: TGI

smilesRecord: O=C(Nc1cccc2ccccc12)c1cc2ccccc2cc1O
system: ACHN renal
TGI: 7.89 µM
//
smilesRecord: O=C1C=Cc2c(I)sc(I)c21
system: ACHN renal
TGI: > 100 µM
//
smilesRecord: CO/N=C/c1c(-c2ccc(Cl)cc2)c(/C=N/OC)n2c1sc1ccccc12
system: ACHN renal
TGI: > 100 µM

Qu. Jot down TGI (ACHN renal) of "CCC(C)(C)c1ccc(Oc2cccc(C(=O)O)c2)cc1" .
Ans. > 100 µM

Qu. Jot down TGI (ACHN renal) of "C(#Cc1ccccc1C#Cc1ccccn1)c1ccc(OCCCCCCOc2ccc(C#Cc3ccccc3C#Cc3ccccn3)cc2)cc1" .
Ans. 7.95 µM

Qu. Jot down TGI (ACHN renal) of "O=C(O)c1cn(C2CC2)c2cc(N3CCN(C(=O)Nc4nc(-c5ccc(Cl)cc5)cs4)CC3)c(F)cc2c1=O" .
Ans. 22 µM
